B1: Osa-1-4 twister ribozyme (parent)
chain: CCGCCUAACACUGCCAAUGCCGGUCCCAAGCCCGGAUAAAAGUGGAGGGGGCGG

Variants of: B1
Assay: self-cleavage, relative activity (ratio to wild type); higher = more cleavage; co-transcriptional
Measured Quantity: self-cleavage

Biopolymer Sequence | Observed
CCGCCUAACACUACCAAUGCCGGUCCCAAGCCCUGAUAAAAGUGGAGGGGGCGG | 0.05
CCGCCUAACACUGCCAAUGCCGGUCCCAUGCCCGGAUAAAAGUGGAGGGGGCAG | 0.07
CCGCCUAACACUGGCAAUGCCGGUCCAAAGCCCGGAUAAAAGUGGAGGGGGCGG | 0.03

Using the record for "CCGCCUAACACUGCCAAUGCCGGUCCCAAGCCCGGAUAAAAUUGGAGGGGGCGG" , report its self-cleavage.
0.14

Similarly, "CCGCCUAACACUGCCAAUGCCGGUCCCAAGCCGGGCUAAAAGUGGAGGGGGCGG" ?
0.04

Would you mind doing "CCGCCUAACACUGCCAAUGCCGGUCCCAAGCCCGGAUAAAAGUGGAGAAGGCGG" as well?
0.05

Now this one: "CCGCCUAACACUGCAAAUGCCUGUCCCAAGCCCGGAUAAAAGUGGAGGGGGCGG"
0.09

Thanks! And "CCGCCUAACACUGCAAAUGCCGGUCCCAAGCCCGGAUAAAAGUGGAGUGGGCGG" ?
0.04
